tested on: HOP-92 NSCLC; assay: NCI-60 one-dose screen, 48 h; conditions: 10 µM unless noted
About 83,000 compounds went through this panel and 20% of them were active in at least one assay; those are over-represented in the sample as a whole. Active and inactive are the calls of the source. The calls were made as follows: active = growth percent below 10; inactive = the rest.
Answer with one of the outcomes given here: true = active, false = inactive

Study these solved cases before continuing.
Q: Identify the outcome logged in this assay for the compound shown: COc1cc(C2CC(=O)Nc3c2c(C)nn3-c2nc3ccccc3[nH]2)cc2c1OCC(=O)N2 (stereo not given)
Ans: false

Q: Identify the outcome logged in this assay for the compound shown: "COc1nc2c(c(=O)n1C)CN(c1ccccc1)C(=O)CN2C"
Ans: false

Q: Identify the outcome logged in this assay for the compound shown: "C[C@H]1[C@H]2[C@H]3CC[C@@H]4[C@@]5(C)C/C(=C/c6ccco6)C(=O)C(C)(C)[C@@H]5CC[C@@]4(C)[C@]3(C)CC[C@]23CO[C@]1(C)[C@@H](C(=O)/C=C\c1ccco1)C3"
Ans: false

Q: Identify the outcome logged in this assay for the compound shown: CCC(CO)Nc1nc2ccc(Cl)cc2c2ccccc12 (stereo not given)
Ans: false

New cases:
Q: Identify the outcome logged in this assay for the compound shown: COc1cc(C2CC(c3cc(OC)c(OCCCOc4ccc(-n5c(/C=C/c6ccccc6)nc6ccccc6c5=O)cc4)c(OC)c3)=NO2)cc(OC)c1OC (stereo not given)
Ans: false

Q: Identify the outcome logged in this assay for the compound shown: "NC1=NCc2nc3ccccc3c(=O)n2C1"
Ans: false

Q: Identify the outcome logged in this assay for the compound shown: "COC1=C(OC)C(=O)C(OC)=C(OC)C1=O"
Ans: false

Q: Identify the outcome logged in this assay for the compound shown: "COc1ccc(N=Nc2ccc(O)c(=O)cc2)cc1"
Ans: false

Q: Identify the outcome logged in this assay for the compound shown: "CC(C)(C)n1cc(-c2ccnc(NCCCNS(=O)(=O)c3ccccc3)c2)c(-c2ccccc2)n1"
Ans: false

Q: Identify the outcome logged in this assay for the compound shown: "N#C/C(=C\c1ccc(Br)cc1)n1nnc2cc(F)c(F)cc21"
Ans: true

Q: Identify the outcome logged in this assay for the compound shown: "Cc1cc(NCc2cc(Nc3ccnc4cc(Cl)ccc34)ccc2F)nc(N2CCSCC2)n1"
Ans: false

Q: Identify the outcome logged in this assay for the compound shown: "Cn1c(=O)c2c(nc(Cl)n2CCl)n(C)c1=O"
Ans: false

Q: Identify the outcome logged in this assay for the compound shown: "Cn1c(-c2c(N)n(Cc3ccc(C(F)(F)F)cc3)c3nc(C#N)c(C#N)nc23)nc2ccccc21"
Ans: true

Q: Identify the outcome logged in this assay for the compound shown: "COc1ccc(/C=N\NC(=O)c2cc(-c3ccc(Br)cc3)n(-c3ccc(S(N)(=O)=O)cc3)n2)cc1"
Ans: false

Q: Identify the outcome logged in this assay for the compound shown: CS(=O)c1cccc(-c2ccc3nc(N)n(-c4ccc(C(F)(F)F)cc4)c(=O)c3c2)c1 (stereo not given)
Ans: false

Q: Identify the outcome logged in this assay for the compound shown: N#CC1=C(/N=C/c2ccccc2)Oc2c(ccc3ccccc23)C1c1ccccc1 (stereo not given)
Ans: false

Q: Identify the outcome logged in this assay for the compound shown: "NS(=O)(=O)c1cnccc1Oc1cccc2cccnc12"
Ans: false
